TEST SUMMARY: Log P by HPLC on reversed phase columns, method [a] (EEC directive 79/831 Annex V.A8)
Format: physicochemical
MEASUREMENT SETUP: reversed phase HPLC column; method [a], HPLC on reversed phase columns; read-out: logP
PROPERTY MEASURED: chromatographic logP

Solved cases below.
[
  {
    "COMPOUND": "CC(Nc1ncc(-c2nnc(C(F)F)o2)cn1)c1ccccn1 (racemic)",
    "chromatographic logP": 1
  },
  {
    "COMPOUND": "CC(C)(Nc1ncc(-c2nnc(C(F)F)o2)cn1)c1ccc(Cl)cc1",
    "chromatographic logP": 3.55
  },
  {
    "COMPOUND": "FC(F)c1nnc(-c2cnc(NC3(c4cccc(Cl)c4)CC3)nc2)o1",
    "chromatographic logP": 3.11
  },
  {
    "COMPOUND": "FC(F)Oc1cccc(C2(Nc3ncc(-c4nnc(C(F)F)o4)cn3)CC2)c1",
    "chromatographic logP": 2.91
  },
  {
    "COMPOUND": "CC(C)(C)c1ccc(C2(Nc3ncc(-c4nnc(C(F)F)o4)cn3)CC2)cc1",
    "chromatographic logP": 4.05
  }
]

(A) Fc1ccccc1C1(N(CC(F)F)c2ncc(-c3nnc(C(F)F)o3)cn2)CC1
(B) COC(=O)c1ccc(C2(Nc3ncc(-c4nnc(C(F)F)o4)cn3)CC2)cc1
For A and B , which recorded chromatographic logP is lower? Pick one and reply with its label. B
(B: 2.51, A: 4.4)

(I) FC(F)c1nnc(-c2cnc(NC(Cc3ccccc3)c3ccccc3)nc2)o1 (racemic)
(II) CC(Nc1ncc(-c2nnc(C(F)F)o2)cn1)c1ncccn1 (racemic)
For the two items I and II , which reports the higher chromatographic logP value? Pick one and reply with its label. I
